meta.source: patent US20210292414A1

Here the recorded EC50 is given for each entry.
# tgt: T1, Sortilin SORTECDBAP_hB12390 (human/tetraodon chimera)
# T1 construct: Shuffle construct: chimeric human/tetraodon Sortilin ECD with BAP tag
# T1 chain: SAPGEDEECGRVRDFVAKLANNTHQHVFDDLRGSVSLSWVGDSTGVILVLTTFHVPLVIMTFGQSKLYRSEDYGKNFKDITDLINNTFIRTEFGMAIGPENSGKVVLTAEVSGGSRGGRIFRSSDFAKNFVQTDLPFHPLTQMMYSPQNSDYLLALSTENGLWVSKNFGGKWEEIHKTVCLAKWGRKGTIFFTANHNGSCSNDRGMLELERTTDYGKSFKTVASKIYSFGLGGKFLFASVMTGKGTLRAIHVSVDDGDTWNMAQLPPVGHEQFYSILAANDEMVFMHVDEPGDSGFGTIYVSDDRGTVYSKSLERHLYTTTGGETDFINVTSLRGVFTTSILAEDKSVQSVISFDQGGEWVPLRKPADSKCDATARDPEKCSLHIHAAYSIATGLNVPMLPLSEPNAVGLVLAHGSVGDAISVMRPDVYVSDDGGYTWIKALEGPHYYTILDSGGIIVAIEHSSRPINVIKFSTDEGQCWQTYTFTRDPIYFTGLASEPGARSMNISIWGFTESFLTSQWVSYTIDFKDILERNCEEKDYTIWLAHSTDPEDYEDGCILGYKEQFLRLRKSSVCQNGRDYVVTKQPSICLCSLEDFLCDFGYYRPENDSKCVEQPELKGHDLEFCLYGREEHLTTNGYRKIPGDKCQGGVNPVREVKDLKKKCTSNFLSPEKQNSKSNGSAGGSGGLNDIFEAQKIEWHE
# test_details: BLI (Octet384RED)

QUERY: Return reported EC50; argument: IgG1-6003-972 (antibody, V domains shown, also called Antibody 6003-972) VH: QVQLVESGGGVVQPGRSLRLSCAASGFTFSDYAMHWVRRAPGKGLEWVVVISYDGSNKYYADSVKGRFTISRDNSKNTLYLQMNSLRAEDTAVYYCARDPSGGWYFDLWGRGTLVTVSS VL: EIVLTQSPATLSLSPGERATLSCRASQSVSSYLAWYQQKPGQAPRLLIYDASNRATGIPARFSGSGSGTDFTLTISSLEPEDFALYYCQQRSHWPRTFGQGTKVEIK
RESULT: 2.36 ng/mL

QUERY: Reported EC50 for Antibody 6003-822 (antibody, human IgG1, V domains shown) VH: EVQLLESGGGLVQPGESLTLSCAASGFTLSSYAMSWVRQAPGKGLEWVSSISGRLGTTYYAASVKGRFTISRDNSKNTLYLQMNSLRAEDTAIYSCAKAPSDAFDIWGQGTMVTVSS VL: EIVLTQSPATLSLSPGERATLSCRASQSVSSYLAWYQQKPGQAPRLLIYDASNRATGIPARFSGSGSGTDFTLTISSLEPEDFAVYYCQQRSNWPIFTFGPGTKVDIK : what is it?
RESULT: 1.89 ng/mL

QUERY: Could you share which EC50 value was measured for Antibody 6003-900 (antibody, human IgG1, V domains shown, also called antibody 900; Sortilin human antibody 900) VH: EVQLVESGGGLVKPGGSLRLSCAASGFTFSSYSMNWVRQAPGKGLEWVSSISSSSSYIYYADSVKGRFTISRDNAKNSLYLQMNSLRAEDTAVYYCARRGSGSYDAFDIWGQGTMVTVSS VL: EIVLTQSPDFQSVTPKEKVTITCRASQSIGYSLHWYQQKPDQSPKLLIKYASQSFSGVPSRFSGSGSGTDFTLTINSLEAEDAAAYYCHQSSSLPLTFGGGTKVEIK ?
RESULT: 1.06 ng/mL
